Data provenance: PubChem BioAssay (Tox21)

assay.system: 5-hydroxytryptamine receptor 2A (Homo sapiens)
experimental.details: 5-hydroxytryptamine receptor 2A (HTR2A) small molecule agonists, cell-based qHTS assay (AID 1963587); also: nearly all actives have a fitted effect of over 30% in size; also: potency is read from the fitted curve at half-maximal effect
test.settings: HTR2A-CHO cells, calcium flux fluorescence, agonist mode; series mostly up to 76.8 µM
Records with an inconclusive call do not appear. Calls of active or inactive are those of the source. Calls follow the shape of the full dose curve.
quantity.measured: Potency

As a guide, the following entries are already answered.
[[record]]
compound = "CCOP(=S)(OCC)SCCS(=O)(=O)CC"
assay_system = "5-hydroxytryptamine receptor 2A (Homo sapiens)"
experimental_value = "inactive"

[[record]]
compound = "Cc1nc(N)nc(N)n1"
assay_system = "5-hydroxytryptamine receptor 2A (Homo sapiens)"
experimental_value = "inactive"

[[record]]
compound = "COC(=O)C(C)Oc1ccc(Oc2ccc(Cl)cc2Cl)cc1 (stereo not drawn)"
assay_system = "5-hydroxytryptamine receptor 2A (Homo sapiens)"
experimental_value = "inactive"

[[record]]
compound = "CCCCCCBr"
assay_system = "5-hydroxytryptamine receptor 2A (Homo sapiens)"
experimental_value = "inactive"

[[record]]
compound = "Cc1cc(C)c(C(=O)P(=O)(c2ccccc2)c2ccccc2)c(C)c1"
assay_system = "5-hydroxytryptamine receptor 2A (Homo sapiens)"
experimental_value = "24.5 µM (active)"

[[record]]
compound = "c1ccc2c(c1)CCNC2"
assay_system = "5-hydroxytryptamine receptor 2A (Homo sapiens)"
experimental_value = "inactive"

[[record]]
compound = "Clc1ccccc1"
assay_system = "5-hydroxytryptamine receptor 2A (Homo sapiens)"
experimental_value = "inactive"

[[record]]
compound = "CC(Cc1ccccc1)NCCn1cnc2c1c(=O)n(C)c(=O)n2C (stereo not drawn)"
assay_system = "5-hydroxytryptamine receptor 2A (Homo sapiens)"
experimental_value = "inactive"

[[record]]
compound = "Oc1ccc2c3c1O[C@H]1[C@@H](O)C=C[C@H]4[C@@H](C2)NCC[C@@]341"
assay_system = "5-hydroxytryptamine receptor 2A (Homo sapiens)"
experimental_value = "inactive"

[[record]]
compound = "CCc1ccc(C2CCNCC2)cc1"
assay_system = "5-hydroxytryptamine receptor 2A (Homo sapiens)"
experimental_value = "8.49 µM (active)"


Input line: Answer with Potency of COc1cccc2c1cc([N+](=O)[O-])c1c(C(=O)O)cc3c(c12)OCO3 measured for 5-hydroxytryptamine receptor 2A (Homo sapiens).
Output line: inactive

Input line: Answer with Potency of COc1ccc(C(=O)c2c(C)n(CCN3CCOCC3)c3ccccc23)cc1 measured for 5-hydroxytryptamine receptor 2A (Homo sapiens).
Output line: inactive

Input line: Answer with Potency of COc1cc(OC)c(OC)cc1C=O measured for 5-hydroxytryptamine receptor 2A (Homo sapiens).
Output line: inactive
